- System: COLO 205 colon
- assay-details: NCI tumour cell line growth inhibition, 48 h
Answer each item with its documented TGI.

In: Answer with the recorded TGI of Cc1c2ccccc2c(C2C3C(=O)N(c4ccc(Br)cc4)C(=O)C3ON2C(C(N)=O)c2ccccc2)c2ccccc12 (stereo not given) only.
Out: 3.33 µM

In: Answer with the recorded TGI of "CCOCCOCCOCc1nc(C#N)c(N)o1" only.
Out: > 100 µM

In: Answer with the recorded TGI of "CCc1ccc(Oc2c(-c3ccc(OCc4ccc(Cl)cc4)cc3O)n[nH]c2C(F)(F)F)cc1" only.
Out: 3.27 µM

In: Answer with the recorded TGI of "CC(=O)O[C@@H]1C[C@]2(C(=O)c3ccccc3)C(=O)C(=O)S[C@]12c1ccccc1" only.
Out: > 100 µM

In: Answer with the recorded TGI of "COc1cc(/C=C2\C(=O)N(C(=O)Cc3ccccc3)N=C2C)cc(OC)c1OC" only.
Out: > 100 µM

In: Answer with the recorded TGI of "Cc1ccc(O)c(Cc2nc3ccccc3nc2-c2cccc(Cl)c2)c1" only.
Out: > 100 µM

In: Answer with the recorded TGI of "c1csc(-c2nn3c(C45CC6CC(CC(C6)C4)C5)nnc3s2)c1" only.
Out: > 100 µM

In: Answer with the recorded TGI of "NCCSSCc1ccccc1CSSCCN" only.
Out: > 100 µM

In: Answer with the recorded TGI of CCOc1cc(C2CC(c3ccc(NS(=O)(=O)c4cc([N+](=O)[O-])ccc4C)cc3)=NN2S(=O)(=O)c2cc([N+](=O)[O-])ccc2C)ccc1O (stereo not given) only.
Out: > 100 µM

In: Answer with the recorded TGI of CCOC(=O)c1cc(C2CCN(c3ccccc3)C2=O)c(/C(O)=C/C(C)=O)[nH]1 (stereo not given) only.
Out: > 100 µM

In: Answer with the recorded TGI of "CC1=NN(c2nc(N)nc(CN3CCOCC3)n2)C(C)(C)C1" only.
Out: > 100 µM

In: Answer with the recorded TGI of "CC(C)[N+]([O-])(CCCNc1c2ccccc2nc2cccc([N+](=O)[O-])c12)C(C)C" only.
Out: 0.0577 µM

In: Answer with the recorded TGI of "COc1cc(OC)cc(OCc2nc3cc(C(F)(F)F)ccc3nc2-c2ccccc2)c1" only.
Out: > 100 µM

In: Answer with the recorded TGI of Cc1ccc(C)c(N2C(=O)C(=O)C(c3nc4ccccc4s3)/C(=N/N)C2=O)c1 (stereo not given) only.
Out: > 100 µM

In: Answer with the recorded TGI of COc1ccc(C2SC(N)=Nc3c2c(C)nn3C(=O)c2ccccc2O)cc1OC (stereo not given) only.
Out: > 10 µM

In: Answer with the recorded TGI of "Cc1ccc2c(c1)SC1=Nc3sc4cc(C)ccc4[n+]3CN12" only.
Out: 13.1 µM

In: Answer with the recorded TGI of "COc1cc(/C=C/c2cc(/C=C/c3ccc(O)c(OC)c3)n(C(=O)c3ccc(Cl)cc3)n2)ccc1O" only.
Out: 13.4 µM

In: Answer with the recorded TGI of C/C(=N\N=C(N)N)C(CN1CCCCC1)C(c1ccccc1)c1c(O)c2ccccc2oc1=O (stereo not given) only.
Out: > 100 µM

In: Answer with the recorded TGI of Cc1ccc(CC2(C(=O)O)Cc3ccc(C)cc3C2)cc1 (stereo not given) only.
Out: > 100 µM

In: Answer with the recorded TGI of "COc1ccc(/C=C\c2cc(OC)c(OC)c(OC)c2)cc1OCC(=O)Nc1nc2ccc(F)cc2s1" only.
Out: > 100 µM

The reported measurements were obtained from PubChem BioAssay (NCI).
